Source listed as patent US9700044B2.

MIC values by entry
system: Oxacillin-resistant Staphylococcus aureus (WHO-25); assay: MIC by agar dilution, ORSA (WHO-25); assay type: cell-based; settings: Table 1; ORSA (WHO-25), 1 isolate
Give the quantity in µg/mL, number only.

COMPOUND | UNIT_LABEL | MIC
O=C(c1ccccc1)c1[nH]c(Cl)c(Cl)c1-n1c(C(=O)c2ccccc2)cc(Cl)c1Cl [Compound 1d] | µg/mL | 4

Now for a further compound.
**Q:** Look at this compound and give its reported MIC. O=C(c1ccc(F)cc1)c1[nH]c(Cl)c(Cl)c1-n1c(C(=O)c2ccc(F)cc2)cc(Cl)c1Cl [Compound 1i]
**A:** 8

----------
system: Methicillin-resistant Staphylococcus aureus (MRSA); test: MIC by agar dilution, MRSA clinical isolates; type: cell-based; conditions: Table 1; MRSA, 10 isolates
ENDPOINT: MIC

Reference set (10 entries):
SMI | MIC
O=C(c1ccc(C(F)(F)F)cc1)c1[nH]c(Cl)c(Cl)c1-n1c(C(=O)c2ccc(C(F)(F)F)cc2)cc(Cl)c1Cl | 32 to 64 mg/L
COc1cccc(C(=O)c2[nH]c(Cl)c(Cl)c2-n2c(C(=O)c3cccc(OC)c3)cc(Cl)c2Cl)c1 | >128 mg/L
O=C(c1ccccc1F)c1[nH]c(Cl)c(Cl)c1-n1c(C(=O)c2ccccc2F)cc(Cl)c1Cl | >128 mg/L
COc1cc(O)c(C(=O)c2[nH]c(Cl)c(Cl)c2-n2c(C(=O)c3cc(Cl)c(OC)cc3O)cc(Cl)c2Cl)cc1Cl | 2 to 8 mg/L
O=C(c1ccccc1)c1[nH]c(Cl)c(Cl)c1-n1c(C(=O)c2ccccc2)cc(Cl)c1Cl | 4 to 8 mg/L
O=C(c1ccc(F)cc1)c1[nH]c(Cl)c(Cl)c1-n1c(C(=O)c2ccc(F)cc2)cc(Cl)c1Cl | 8 to 16 mg/L
COc1ccc(C(=O)c2[nH]c(Cl)c(Cl)c2-n2c(C(=O)c3ccc(OC)cc3)cc(Cl)c2Cl)cc1 | >128 mg/L
COc1cc(OC)c(C(=O)c2[nH]c(Cl)c(Cl)c2-n2c(C(=O)c3cc(Cl)c(OC)cc3OC)cc(Cl)c2Cl)cc1Cl | >64 mg/L
O=C(c1cccc(F)c1)c1[nH]c(Cl)c(Cl)c1-n1c(C(=O)c2cccc(F)c2)cc(Cl)c1Cl | >64 mg/L
O=C(c1ccccc1C(F)(F)F)c1[nH]c(Cl)c(Cl)c1-n1c(C(=O)c2ccccc2C(F)(F)F)cc(Cl)c1Cl | >128 mg/L

**Q:** # value lookup — system Methicillin-resistant Staphylococcus aureus (MRSA), readout MIC, item "COc1ccccc1C(=O)c1[nH]c(Cl)c(Cl)c1-n1c(C(=O)c2ccccc2OC)cc(Cl)c1Cl"
**A:** 4 to 16 mg/L

----------
In this section we review reported MIC values for a set of compounds.
System: Moderately vancomycin-resistant Enterococci faecium with the VanA gene (WHO-3)
Test: MIC by agar dilution, VRE (WHO-3)
Type: cell-based
Conditions: Enterococcus; Table 2; WHO-3; read-out: MIC
Description: A panel of multiple resistance Gram-positive and Gram-negative pathogens listed in Tables 1 and 2 was used to evaluate the antimicrobial activity of marinopyrrole derivatives (Chart 1) with vancomycin as a positive control. […] The potency of the compound was determined and expressed as minimum inhibitory concentration (MIC) in μg/mL. The MIC was determined as the lowest concentration of antibiotic that inhibited visible bacterial growth.
// return numeric value only (unit: µg/mL, not printed)

**Q:** What value of MIC has been recorded for this entry: "O=C(O)CSc1ccc(C(=O)c2[nH]c(Cl)c(Cl)c2-n2c(C(=O)c3ccc(SCC(=O)O)cc3O)cc(Cl)c2Cl)c(O)c1"
**A:** 32

**Q:** How about this compound: "O=C(c1ccc(O)cc1O)c1[nH]c(Cl)c(Cl)c1-n1c(C(=O)c2ccc(O)cc2O)cc(Cl)c1Cl"
**A:** 4

**Q:** Same thing, different compound: "O=C(c1ccc(C(F)(F)F)cc1O)c1[nH]c(Cl)c(Cl)c1-n1c(C(=O)c2ccc(C(F)(F)F)cc2O)cc(Cl)c1Cl"
**A:** 0.5

**Q:** Can you handle "O=C(O)CS(=O)(=O)c1ccc(C(=O)c2[nH]c(Cl)c(Cl)c2-n2c(C(=O)c3ccc(S(=O)(=O)CC(=O)O)cc3O)cc(Cl)c2Cl)c(O)c1" next?
**A:** 64

**Q:** Now the compound "O=C(c1cc(Cl)c(O)cc1O)c1[nH]c(Cl)c(Cl)c1-n1c(C(=O)c2cc(Cl)c(O)cc2O)cc(Cl)c1Cl"
**A:** 4

----------
system: Oxacillin-resistant Staphylococcus aureus (WHO-25); experiment: MIC by agar dilution, ORSA (WHO-25); assay type: cell-based; settings: Table 2; WHO-25
Recorded measurements of MIC, one per entry
// units = mg/L; emit number, no label

// below: answered molecules
SMI | TESTED_SYSTEM | UNIT_LABEL | MIC
O=C(c1ccc(S(=O)(=O)Cc2ccccc2)cc1O)c1[nH]c(Cl)c(Cl)c1-n1c(C(=O)c2ccc(S(=O)(=O)Cc3ccccc3)cc2O)cc(Cl)c1Cl | Oxacillin-resistant Staphylococcus aureus (WHO-25) | mg/L | 32
CCOC(=O)CSc1ccc(C(=O)c2[nH]c(Cl)c(Cl)c2-n2c(C(=O)c3ccc(SCC(=O)OCC)cc3O)cc(Cl)c2Cl)c(O)c1 | Oxacillin-resistant Staphylococcus aureus (WHO-25) | mg/L | 64

**Q:** Recorded MIC of "CCOC(=O)CS(=O)(=O)c1ccc(C(=O)c2[nH]c(Cl)c(Cl)c2-n2c(C(=O)c3ccc(S(=O)(=O)CC(=O)OCC)cc3O)cc(Cl)c2Cl)c(O)c1" , please.
**A:** 32

----------
Each item that follows carries a reported MIC.
tested on: Methicillin-resistant Staphylococcus aureus with the mec A gene and PBP2a (WHO-31); test: MIC by agar dilution, MRSA (WHO-31); assay type: cell-based; conditions: Staphylococcus aureus; Table 2; WHO-31; read-out: MIC
Kindly provide the numeric value in µg/mL only, without the unit symbol.

COMPOUND | TESTED_SYSTEM | MIC / µg/mL
O=C(c1ccc(O)cc1O)c1[nH]c(Cl)c(Cl)c1-n1c(C(=O)c2ccc(O)cc2O)cc(Cl)c1Cl [Compound 24] | Methicillin-resistant Staphylococcus aureus with the mec A gene and PBP2a (WHO-31) | 2
O=C(c1cc(Cl)c(O)cc1O)c1[nH]c(Cl)c(Cl)c1-n1c(C(=O)c2cc(Cl)c(O)cc2O)cc(Cl)c1Cl [Compound 19] | Methicillin-resistant Staphylococcus aureus with the mec A gene and PBP2a (WHO-31) | 8

Next compound, MIC to be filled in.
**Q:** Consider the compound O=C(c1ccc(C(F)(F)F)cc1O)c1[nH]c(Cl)c(Cl)c1-n1c(C(=O)c2ccc(C(F)(F)F)cc2O)cc(Cl)c1Cl [Compound 41] and give its measured MIC.
**A:** 1

----------
test system: Oxacillin-resistant Staphylococcus aureus (WHO-25); assay: MIC by agar dilution, ORSA (WHO-25); type: cell-based; conditions: Table 1; ORSA (WHO-25), 1 isolate
ENDPOINT: MIC (µg/mL)
Express the result in µg/mL but write the number alone.

MOLECULE | TESTED_SYSTEM | MIC / µg/mL
COc1ccccc1C(=O)c1[nH]c(Cl)c(Cl)c1-n1c(C(=O)c2ccccc2OC)cc(Cl)c1Cl [Compound 1c] | Oxacillin-resistant Staphylococcus aureus (WHO-25) | 8
O=C(c1ccc(C(F)(F)F)cc1)c1[nH]c(Cl)c(Cl)c1-n1c(C(=O)c2ccc(C(F)(F)F)cc2)cc(Cl)c1Cl [Compound 1k] | Oxacillin-resistant Staphylococcus aureus (WHO-25) | 8
O=C(c1cccc(F)c1)c1[nH]c(Cl)c(Cl)c1-n1c(C(=O)c2cccc(F)c2)cc(Cl)c1Cl [Compound 1h] | Oxacillin-resistant Staphylococcus aureus (WHO-25) | 4

Shifting focus to the molecule that follows.
**Q:** What value of MIC on Oxacillin-resistant Staphylococcus aureus (WHO-25) does COc1cc(O)c(C(=O)c2[nH]c(Cl)c(Cl)c2-n2c(C(=O)c3cc(Cl)c(OC)cc3O)cc(Cl)c2Cl)cc1Cl [Compound 1m] have?
**A:** 4

----------
test system: Oxacillin-resistant Staphylococcus aureus (WHO-25); experiment: MIC by agar dilution, ORSA (WHO-25); format: cell-based; details: Table 2; WHO-25
ENDPOINT: MIC

COMPOUND | MIC
COc1ccc(CSc2ccc(C(=O)c3[nH]c(Cl)c(Cl)c3-n3c(C(=O)c4ccc(SCc5ccc(OC)cc5)cc4O)cc(Cl)c3Cl)c(O)c2)cc1 [Compound 27] | >64 µg/mL
O=C(c1ccc(SCc2ccccc2)cc1O)c1[nH]c(Cl)c(Cl)c1-n1c(C(=O)c2ccc(SCc3ccccc3)cc2O)cc(Cl)c1Cl [Compound 26] | >64 µg/mL

We next turn to a different compound, shown below.
**Q:** Entry COc1ccc(CS(=O)(=O)c2ccc(C(=O)c3[nH]c(Cl)c(Cl)c3-n3c(C(=O)c4ccc(S(=O)(=O)Cc5ccc(OC)cc5)cc4O)cc(Cl)c3Cl)c(O)c2)cc1 [Compound 30] has what MIC?
**A:** >64 µg/mL
